- method: Selectivity index, ratio of hemolytic EC50 for human RBC to MIC for Staphylococcus aureus ATCC 9144
parameterMeasured: Selectivity Index
Lab note: record the figure alone, no unit after it.

Entry under review: CC(C)(C)c1cc(C(=O)Nc2ccc(C(=O)NCCN)cc2)cc(C(C)(C)C)c1.Cl . Reported Selectivity Index? 3.5

Entry under review: CC(C)(C)c1cc(NC(=O)c2ccc(C(=O)NCCCN)cc2)cc(C(C)(C)C)c1.Cl . Reported Selectivity Index? 3.5

Entry under review: CC(C)(C)c1cc(C(=O)Nc2ccccc2C(=O)NCCN)cc(C(C)(C)C)c1.Cl . Reported Selectivity Index? 3.6

Entry under review: CC(C)(C)c1cc(C(=O)Nc2cccc(C(=O)NCCCN)c2)cc(C(C)(C)C)c1.Cl . Reported Selectivity Index? 4

Entry under review: CC(C)(C)c1cc(C(=O)Nc2ccccc2C(=O)NCCCNC(=N)N)cc(C(C)(C)C)c1.Cl . Reported Selectivity Index? 9.8

Entry under review: CC(C)(C)c1cc(C(=O)Nc2cccc(C(=O)NCCNC(=N)N)c2)cc(C(C)(C)C)c1.Cl . Reported Selectivity Index? 9.3

Entry under review: CC(C)(C)c1cc(C(=O)Nc2cccc(C(=O)NCCN)c2)cc(C(C)(C)C)c1.Cl . Reported Selectivity Index? 2.4

Entry under review: CN(C(=O)c1cc(C(C)(C)C)cc(C(C)(C)C)c1)c1ccc(C(=O)NCCN)cc1 . Reported Selectivity Index? 0.3

Entry under review: CC(C)(C)c1cc(C(=O)Nc2ccccc2C(=O)NCCCN)cc(C(C)(C)C)c1.Cl . Reported Selectivity Index? 2.9

Entry under review: CC(C)(C)c1cc(NC(=O)c2ccc(C(=O)NCCCNC(=N)N)cc2)cc(C(C)(C)C)c1.Cl . Reported Selectivity Index? 10.5

Entry under review: CC(C)(C)c1cc(C(=O)Nc2cc3ccccc3cc2C(=O)NCCN)cc(C(C)(C)C)c1.Cl . Reported Selectivity Index? 11.5

Entry under review: CC(C)(C)c1cc(NC(=O)c2ccc(C(=O)NCCN)cc2)cc(C(C)(C)C)c1.Cl . Reported Selectivity Index? 2.6

Entry under review: CC(C)(C)c1cc(C(=O)NCc2ccc(C(=O)NCCNC(=N)N)cc2)cc(C(C)(C)C)c1.Cl . Reported Selectivity Index? 6.5

Entry under review: CC(C)(C)c1cc(C(=O)Nc2ccc(C(=O)NCCCNC(=N)N)cc2)cc(C(C)(C)C)c1.Cl . Reported Selectivity Index? 15.5

Entry under review: CN(C)CCOC(=O)c1ccc(NC(=O)c2cc(C(C)(C)C)cc(C(C)(C)C)c2)cc1.Cl . Reported Selectivity Index? 3.5

Entry under review: CC(C)(C)c1cc(C(=O)Nc2ccc(C(=O)NCCCN)cc2)cc(C(C)(C)C)c1.Cl . Reported Selectivity Index? 3.9

====

- Test system: Pseudomonas aeruginosa
- method: Antibacterial activity against Pseudomonas aeruginosa PAO1 DSM 19880 (ATCC 15692) after 48 hrs by microdilution method
- Type: functional
parameterMeasured: MIC (µg/mL)
Could you give me the number in µg/mL? Just the number is fine.

What is its MIC for Pseudomonas aeruginosa? Entry: CC(C)(C)c1cc(C(=O)Nc2ccccc2C(=O)NCCCN)cc(C(C)(C)C)c1.Cl 32

What is its MIC for Pseudomonas aeruginosa? Entry: CC(C)(C)c1cc(C(=O)Nc2ccc(CC(=O)NCCNC(=N)N)cc2)cc(C(C)(C)C)c1.Cl 16

What is its MIC for Pseudomonas aeruginosa? Entry: CC(C)(C)c1cc(C(=O)Nc2cc3ccccc3cc2C(=O)NCCNC(=N)N)cc(C(C)(C)C)c1.Cl 64

What is its MIC for Pseudomonas aeruginosa? Entry: CC(C)(C)c1cc(NC(=O)c2ccc(C(=O)NCCCNC(=N)N)cc2)cc(C(C)(C)C)c1.Cl 8

What is its MIC for Pseudomonas aeruginosa? Entry: CC(C)(C)c1cc(C(=O)Nc2ccccc2C(=O)NCCCNC(=N)N)cc(C(C)(C)C)c1.Cl 32

What is its MIC for Pseudomonas aeruginosa? Entry: CC(C)(C)c1cc(C(=O)Nc2ccccc2C(=O)NCCN)cc(C(C)(C)C)c1.Cl 64

What is its MIC for Pseudomonas aeruginosa? Entry: CC(C)(C)c1cc(C(=O)Nc2cccc(C(=O)NCCCN)c2)cc(C(C)(C)C)c1.Cl 16

Values were extracted from ChEMBL document CHEMBL3862007.
